Recorded values, source PubChem BioAssay (NCI).

System: SF-268 CNS
Assay: NCI-60 one-dose screen, 48 h (100 = growth as untreated, 0 = no growth, -100 = all killed)
Conditions: 10 µM unless noted
The panel holds about 83,000 compounds, 20% with a hit somewhere; the sample as a whole holds those more often.
READOUT_NAME: growth (%)
Answers are plain numbers, in %.

Past entries and their recorded results:
[[record]]
compound = "C[C@@H](CO)[C@@H]1CC[C@]2(C(=O)N3CCN(C)CC3)CC[C@]3(C)[C@H](CC[C@@H]4[C@@]5(C)CC[C@H](O)C(C)(C)[C@@H]5CC[C@]43C)[C@@H]12"
observed = 56.7

[[record]]
compound = "Cc1cc(C(=O)Nc2cc(Nc3ncccc3-c3ncnc4nc[nH]c34)ccc2F)cc(C(F)(F)F)c1"
observed = 67.3


List reported growth for each of these compounds:
1. CCN1C(=S)N(CC)C2C1NC(=S)N2/N=C/C=C/c1ccccc1OC (stereo not given)
2. O=C(c1ccc(F)c(Cl)c1)N1c2ccccc2Sc2ccccc21
3. CCN(C(=O)N1CCN(c2cc3c(cc2F)c(=O)c(C(=O)O)cn3C2CC2)CC1)c1nc(-c2ccc(C)cc2)cs1

1: 56.4; 2: 66.8; 3: 21
